Molecular target: T1, huZIP12-ECD-GST (human, UniProt Q504Y0 24-202)
T1 construct: also called hZIP12-ECD-GST; human ZIP12-ECD-GST; not shown: glutathione S-transferase (GST) tag
T1 sequence (Q504Y0 24-202): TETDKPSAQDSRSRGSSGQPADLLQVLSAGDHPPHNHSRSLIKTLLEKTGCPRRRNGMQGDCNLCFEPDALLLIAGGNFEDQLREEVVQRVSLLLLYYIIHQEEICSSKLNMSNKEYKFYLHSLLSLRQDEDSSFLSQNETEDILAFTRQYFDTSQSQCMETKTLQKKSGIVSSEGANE
Assay: SPR single cycle kinetics (Biacore): mAb captured on protein A, huZIP12-ECD-GST injected at 3.12-800 nM
Procedure: Single Cycle Kinetics (SCK) involves first capturing the mAb onto the protein A sensor surface and then sequentially injecting a series of concentrations of huZIP12-ECD-GST over the surface starting at the lowest concentration and ending with the highest concentration. […] The SCK is repeated for each monoclonal antibody providing duplicate data and the kinetics of each interaction is evaluated by the Biacore software. […]
property: koff
Put your answer as a value accompanied by its unit after it.

- H2_T63Y_L1 (antibody, V domains shown, Fc null human IgG1 / human kappa) VH: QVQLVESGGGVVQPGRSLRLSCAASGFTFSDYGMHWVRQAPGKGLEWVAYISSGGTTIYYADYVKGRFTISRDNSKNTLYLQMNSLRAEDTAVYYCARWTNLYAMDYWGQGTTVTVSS VL: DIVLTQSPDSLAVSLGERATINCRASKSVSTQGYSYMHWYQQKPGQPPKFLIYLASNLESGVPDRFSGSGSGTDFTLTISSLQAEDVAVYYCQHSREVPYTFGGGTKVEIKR: 3.16e-05 s⁻¹

Prompt line: # return recorded koff for entry H3_M105P_L2 (antibody, V domains shown, Fc null human IgG1 / human kappa) VH: QVQLVESGGGVVQPGRSLRLSCAASGFTFSDYGMHWVRQAPGKGLEWVAYISSGGTTIYYADTVKGRFTISRDNSKNTLYLQMNSLRAEDTAVYYCARWTNLYAPDYWGQGTTVTVSS VL: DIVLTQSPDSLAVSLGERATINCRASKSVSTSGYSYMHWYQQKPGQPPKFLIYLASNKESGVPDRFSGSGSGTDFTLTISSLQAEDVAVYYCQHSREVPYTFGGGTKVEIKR
Response line: 4.14e-05 s⁻¹

Prompt line: Give the measured koff for H2_T57H_VL-par (antibody, V domains shown, Fc null human IgG1 / human kappa) VH: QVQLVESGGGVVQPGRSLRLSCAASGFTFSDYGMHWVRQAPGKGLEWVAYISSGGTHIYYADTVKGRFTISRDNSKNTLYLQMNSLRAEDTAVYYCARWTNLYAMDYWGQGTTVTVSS VL: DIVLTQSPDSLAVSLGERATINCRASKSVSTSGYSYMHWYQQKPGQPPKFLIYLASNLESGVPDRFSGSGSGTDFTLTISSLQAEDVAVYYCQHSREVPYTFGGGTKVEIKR
Response line: 3.47e-05 s⁻¹

Prompt line: Fill in reported koff for this entry: H2_T63Y_L2 (antibody, V domains shown, Fc null human IgG1 / human kappa) VH: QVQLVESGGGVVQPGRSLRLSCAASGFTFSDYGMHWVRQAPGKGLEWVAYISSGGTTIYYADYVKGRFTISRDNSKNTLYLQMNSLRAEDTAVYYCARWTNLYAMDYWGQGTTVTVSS VL: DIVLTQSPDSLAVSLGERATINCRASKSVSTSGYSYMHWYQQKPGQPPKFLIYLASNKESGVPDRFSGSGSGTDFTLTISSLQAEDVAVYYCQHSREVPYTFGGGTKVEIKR
Response line: 3.06e-05 s⁻¹

Prompt line: Note down koff recorded for H2_K65P_L1 (antibody, V domains shown, Fc null human IgG1 / human kappa) VH: QVQLVESGGGVVQPGRSLRLSCAASGFTFSDYGMHWVRQAPGKGLEWVAYISSGGTTIYYADTVPGRFTISRDNSKNTLYLQMNSLRAEDTAVYYCARWTNLYAMDYWGQGTTVTVSS VL: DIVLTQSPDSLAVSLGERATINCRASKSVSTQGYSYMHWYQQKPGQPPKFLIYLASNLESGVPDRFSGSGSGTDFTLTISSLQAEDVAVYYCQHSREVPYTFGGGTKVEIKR
Response line: 3.08e-05 s⁻¹
